System: human APOE RNA
Assay: Dose-dependent inhibition of human APOE RNA in HepG2 cells, electroporation, 50,000 cells per well, RT-PCR normalized to GAPDH (Example 4, Tables 8-10)
Format: cell-based
Conditions: 1,280 nM; HepG2, electroporation, 24-hour treatment
Strand notation (5' to 3'): a small letter for the sugar, then the base; units joined by * are phosphorothioate-linked, units joined directly phosphodiester-linked; [ ] holds rarer units or linkages, { } end groups; capitals alone tell only the bases. [ms] = mesyl phosphoramidate linkage; k = constrained ethyl (cEt); [5mC] = 5-methylcytosine; d = 2'-deoxy (DNA)
Outcome: Yes for APOE RNA (% UTC) of at least 40 % UTC; No for anything lower.

Solved entries:
substance | target_or_test_system | group_label
1746813 (k[5mC]*dT[ms]dT[ms]kG*dG[ms]kT*dG[ms]dA[ms]dA[ms]dT*d[5mC]*dT*dT*dT*dA[ms]dT*dT[ms]kA*kA*kA; antisense) [Compound 1746813] | human APOE RNA | Yes
1746792 (k[5mC]*dT[ms]dT[ms]kG*dG[ms]kT*dG[ms]dA[ms]dA[ms]dT*d[5mC]*dT*dT*dT*dA[ms]dT*kT*kA*dA[ms]kA; antisense) [Compound 1746792] | human APOE RNA | No
1746809 (k[5mC]*dT[ms]kT*dG[ms]kG*dT[ms]dG[ms]dA[ms]dA[ms]dT*d[5mC]*dT*dT*dT*dA[ms]dT*dT[ms]kA*kA*kA; antisense) [Compound 1746809] | human APOE RNA | No
1746785 (k[5mC]*kT*dT[ms]kG*dG[ms]dT[ms]dG[ms]dA[ms]dA[ms]dT*d[5mC]*dT*dT*dT*dA[ms]dT*kT*kA*dA[ms]kA; antisense) [Compound 1746785] | human APOE RNA | Yes

Task item: Quick check, APOE RNA (% UTC) >= 40 % UTC? 1746810 (k[5mC]*dT[ms]kT*dG[ms]dG[ms]kT*dG[ms]dA[ms]dA[ms]dT*d[5mC]*dT*dT*dT*dA[ms]dT*dT[ms]kA*kA*kA; antisense) [Compound 1746810]
Reply: No

The values you see were collected from patent US20250353873A1.
